# PROTOCOL: Plasma pharmacokinetics, cycle 1
# MEASUREMENT_CONDITIONS: human, in vivo, 196 mg/m2, Cmax
OUTCOME_MEASURE: Cmax (ng/mL)
The figure you give is taken to be in ng/mL; do not add the unit.

Q. Name the reported Cmax value associated with the compound `NS(=O)(=O)OC[C@@H]1C[C@@H](n2ccc3c(N[C@H]4CCc5ccccc54)ncnc32)C[C@@H]1O`
A. 4560

----------
# PROTOCOL: Plasma pharmacokinetics, cycle 1
# MEASUREMENT_CONDITIONS: human, in vivo, 196 mg/m2, t½ (terminal disposition half-life)
OUTCOME_MEASURE: half-life (h)
The figure you give is taken to be in h; do not add the unit.

Q. Name the reported half-life value associated with the compound `NS(=O)(=O)OC[C@@H]1C[C@@H](n2ccc3c(N[C@H]4CCc5ccccc54)ncnc32)C[C@@H]1O`
A. 8.5

----------
# PROTOCOL: Plasma pharmacokinetics, cycle 1
# MEASUREMENT_CONDITIONS: human, in vivo, 110 mg/m2, Cmax
OUTCOME_MEASURE: Cmax (ng/mL)
The figure you give is taken to be in ng/mL; do not add the unit.

Q. Name the reported Cmax value associated with the compound `NS(=O)(=O)OC[C@@H]1C[C@@H](n2ccc3c(N[C@H]4CCc5ccccc54)ncnc32)C[C@@H]1O`
A. 1500

----------
# PROTOCOL: Plasma pharmacokinetics, cycle 1
# MEASUREMENT_CONDITIONS: human, in vivo, 196 mg/m2, Tmax
OUTCOME_MEASURE: Tmax
Don't forget the unit after the value.

Q. Name the reported Tmax value associated with the compound NS(=O)(=O)OC[C@@H]1C[C@@H](n2ccc3c(N[C@H]4CCc5ccccc54)ncnc32)C[C@@H]1O [pevonedistat]
A. 1.1 h

----------
# PROTOCOL: Plasma pharmacokinetics, cycle 1
# MEASUREMENT_CONDITIONS: human, in vivo, 110 mg/m2
OUTCOME_MEASURE: Tmax
Don't forget the unit after the value.

Q. Name the reported Tmax value associated with the molecule `NS(=O)(=O)OC[C@@H]1C[C@@H](n2ccc3c(N[C@H]4CCc5ccccc54)ncnc32)C[C@@H]1O`
A. 1.08 h
